- Tested on: YANK1;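 also: KINOMEscan kinase panel screen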
- Construct: gene STK32A
- measurement.conditions: concentration: 1 μM, replicates: in singlicate; n = 1
Given measured %Inh, output Satisfied if it is greater than or equal to 8% and Not satisfied if not.

In [3]: df
Out[3]:
                                   molecule  category_label
0  COc1cccc(C(=O)Nc2cccc(Oc3ccc4nc(NC(=O)C5CC5)cn4n3)c2)c1   Not satisfied
1  Fc1ccc(-c2ncn(C3CCNCC3)c2-c2ccnc(Oc3ccc(-c4ccccc4)cc3)n2)cc1       Satisfied
2  COc1cc(Nc2ncc3c(C)nc(-c4cc5ccccc5[nH]4)n3n2)cc(OC)c1OC   Not satisfied
3  Cc1ccc(C)c(NC(=O)NC2CCN(c3ccnc(Nc4ccc(F)cc4)n3)C2)c1 (stereo not drawn)   Not satisfied
4  COc1ccc(Nc2nccc(NCCNC(=O)c3cc4ccccc4s3)n2)cc1       Satisfied
5  CNC(=O)c1ccccc1Nc1nc(Nc2ccc(N3CCOCC3)cc2)ncc1Cl.Cl       Satisfied
6  O=C(Nc1cccc(-c2nn3ncccc3c2-c2ccnc(Nc3ccccc3)n2)c1)c1c(F)cccc1F       Satisfied

Turning now to a further record.
Q: Say whether `O=C(Nc1cccc(Oc2ccc3nc(NC(=O)C4CC4)cn3n2)c1)c1ccccc1C(F)(F)F` shows %Inh of 8% or more.
Ans: Not satisfied
